- assayed_system: BaF3_HER2YVMA cells (Homo sapiens, UniProt P04626, DUP772-775, cells depend on it)
- Sequence (P04626 with tags, fused parts or gaps DUP772-775): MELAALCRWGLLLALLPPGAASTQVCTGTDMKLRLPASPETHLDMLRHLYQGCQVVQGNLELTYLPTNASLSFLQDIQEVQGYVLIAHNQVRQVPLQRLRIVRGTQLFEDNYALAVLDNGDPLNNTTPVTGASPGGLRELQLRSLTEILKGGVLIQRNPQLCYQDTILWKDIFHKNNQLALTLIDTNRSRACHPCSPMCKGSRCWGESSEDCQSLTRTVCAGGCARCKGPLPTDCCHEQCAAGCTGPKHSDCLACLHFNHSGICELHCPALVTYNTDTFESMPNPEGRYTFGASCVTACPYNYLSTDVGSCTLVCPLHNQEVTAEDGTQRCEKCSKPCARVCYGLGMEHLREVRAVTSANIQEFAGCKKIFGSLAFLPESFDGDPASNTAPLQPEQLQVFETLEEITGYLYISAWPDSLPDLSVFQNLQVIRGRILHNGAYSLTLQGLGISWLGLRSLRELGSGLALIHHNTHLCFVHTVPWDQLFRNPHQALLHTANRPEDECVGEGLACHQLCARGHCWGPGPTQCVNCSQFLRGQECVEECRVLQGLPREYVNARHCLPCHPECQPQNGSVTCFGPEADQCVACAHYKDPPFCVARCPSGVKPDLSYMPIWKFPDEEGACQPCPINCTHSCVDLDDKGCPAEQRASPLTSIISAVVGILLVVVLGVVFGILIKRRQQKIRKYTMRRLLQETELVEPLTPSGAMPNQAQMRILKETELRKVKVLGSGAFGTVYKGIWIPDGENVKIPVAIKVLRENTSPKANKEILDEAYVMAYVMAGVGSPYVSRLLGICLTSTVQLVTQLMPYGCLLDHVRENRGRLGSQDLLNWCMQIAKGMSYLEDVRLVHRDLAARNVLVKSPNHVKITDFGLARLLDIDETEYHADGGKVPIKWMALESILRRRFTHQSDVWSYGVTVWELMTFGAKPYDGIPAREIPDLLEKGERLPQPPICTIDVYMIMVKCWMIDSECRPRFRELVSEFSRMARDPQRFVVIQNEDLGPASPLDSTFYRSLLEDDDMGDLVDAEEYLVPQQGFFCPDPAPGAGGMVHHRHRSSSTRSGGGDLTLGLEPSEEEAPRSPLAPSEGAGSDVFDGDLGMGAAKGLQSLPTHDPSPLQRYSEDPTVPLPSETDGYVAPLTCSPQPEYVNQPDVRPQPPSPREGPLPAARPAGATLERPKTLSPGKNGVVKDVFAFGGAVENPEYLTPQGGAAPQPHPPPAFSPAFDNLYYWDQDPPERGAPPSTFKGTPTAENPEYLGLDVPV
- assay_procedure: Cell growth inhibition assay (CellTiterGlo), BaF3_HER2YVMA
- Assay type: cell-based
- assay_context: 3-day treatment, CellTiterGlo, read-out: Cell growth inhibition activity, HER2 - YVMA
Field: GI50. Provide a value for each of the compounds that follow.

I have this compound here, `Cc1cc(Nc2ncnn3ccc(N4CCC(N(C)C(=O)/C=C/CN(C)C)CC4)c23)ccc1Oc1ccn2ncnc2c1` , and I need its recorded GI50.
0.5 to 1.5 µM

Same for `C=CC(=O)N1CC2(C1)CN(c1ccn3ncnc(Nc4cnc(Oc5ccn6ncnc6c5)c(Cl)c4)c13)C2`
> 5 µM

Now try C=C(CN(C)C)C(=O)N1C2C=C(c3ccn4ncnc(Nc5ccc(Oc6ccn7ncnc7c6)c(C)c5)c34)CC1CC2 (stereo not drawn) [Example 30, acetate] .
< 0.2 µM

###

- assayed_system: BaF3_HER2WT cells (Homo sapiens, UniProt P04626)
- Sequence (P04626 whole entry, change not shown): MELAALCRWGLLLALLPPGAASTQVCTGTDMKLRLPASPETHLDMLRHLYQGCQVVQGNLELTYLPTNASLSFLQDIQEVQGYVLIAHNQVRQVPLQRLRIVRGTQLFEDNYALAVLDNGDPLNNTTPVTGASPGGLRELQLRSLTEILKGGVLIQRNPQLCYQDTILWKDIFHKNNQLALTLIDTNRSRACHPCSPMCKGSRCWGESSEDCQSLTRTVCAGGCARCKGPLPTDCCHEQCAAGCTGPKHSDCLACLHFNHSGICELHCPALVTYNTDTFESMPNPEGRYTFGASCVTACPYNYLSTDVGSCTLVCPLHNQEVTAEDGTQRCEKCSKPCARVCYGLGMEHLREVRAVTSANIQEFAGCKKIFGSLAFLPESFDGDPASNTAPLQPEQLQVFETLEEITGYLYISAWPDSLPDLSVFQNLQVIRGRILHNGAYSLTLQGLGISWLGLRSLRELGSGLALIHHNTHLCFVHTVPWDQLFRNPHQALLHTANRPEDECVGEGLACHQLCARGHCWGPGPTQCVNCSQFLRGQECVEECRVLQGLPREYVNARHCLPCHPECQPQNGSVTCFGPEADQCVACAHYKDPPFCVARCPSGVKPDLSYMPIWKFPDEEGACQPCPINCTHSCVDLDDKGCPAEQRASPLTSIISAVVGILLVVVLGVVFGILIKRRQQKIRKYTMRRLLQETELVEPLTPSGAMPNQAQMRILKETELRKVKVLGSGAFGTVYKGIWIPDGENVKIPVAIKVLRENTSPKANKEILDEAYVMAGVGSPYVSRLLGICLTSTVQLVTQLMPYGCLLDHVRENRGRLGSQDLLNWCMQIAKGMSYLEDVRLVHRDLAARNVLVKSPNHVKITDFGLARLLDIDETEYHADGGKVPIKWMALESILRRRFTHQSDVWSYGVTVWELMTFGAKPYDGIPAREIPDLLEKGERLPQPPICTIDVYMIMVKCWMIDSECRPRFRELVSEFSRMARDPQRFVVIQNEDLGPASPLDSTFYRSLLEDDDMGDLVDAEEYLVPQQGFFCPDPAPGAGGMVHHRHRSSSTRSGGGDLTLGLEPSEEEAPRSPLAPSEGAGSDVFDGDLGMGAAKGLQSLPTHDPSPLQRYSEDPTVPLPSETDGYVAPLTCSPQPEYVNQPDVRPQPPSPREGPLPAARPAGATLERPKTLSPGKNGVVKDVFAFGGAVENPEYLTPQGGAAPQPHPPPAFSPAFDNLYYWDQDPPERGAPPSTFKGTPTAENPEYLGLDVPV
- assay_procedure: Cell growth inhibition assay (CellTiterGlo), BaF3_HER2WT
- Format: cell-based
- assay_context: 3-day treatment, CellTiterGlo, read-out: Cell growth inhibition activity, HER2 WT
quantity_name: GI50

State the recorded GI50 for this entry: C=CC(=O)N1CCC(c2ccn3ncnc(Nc4ccc(Oc5ccn6ncnc6c5)c(C)c4)c23)CC1 [Example 7]
< 200 nM

Same question for Cc1cc(Nc2ncnn3ccc(C4CN(C(=O)/C=C/CN5CC(F)C5)C4)c23)ccc1Oc1ccc2c(c1)ncn2C [Example 161] please.
< 200 nM

Now consider Cc1cc(Nc2ncnn3ccc(C4CN(C(=O)/C=C/CN(C)C)C4)c23)ccc1Oc1ccn2cnnc2c1 [Example 134] and answer again.
200 to 500 nM

One more molecule: CO[C@H]1CN(C/C=C/C(=O)N2CCC(c3ccn4ncnc(Nc5ccc(Oc6ccc7c(c6)ncn7C)c(C)c5)c34)CC2)C[C@H]1OC [Example 167]
< 200 nM

Try this molecule next: Cc1cc(Nc2ncnn3ccc(C4CN(C(=O)/C=C/C5CCCN5C)C4)c23)ccc1Oc1ccn2ncnc2c1 (stereo not shown) [Example 66]
< 200 nM

Next up: C=C(CN(C)C)C(=O)N1CC2CCC(C1)N2c1ccn2ncnc(Nc3ccc(Oc4ccn5ncnc5c4)c(C)c3)c12 [Example 49, acetate]
< 200 nM

Request: C=CC(=O)N1CCC(c2ccn3ncnc(Nc4ccc(Oc5ccc6c(c5)ncn6C)c(C)c4)c23)CC1 [Example 113]
< 200 nM

COC1CCN(C/C=C/C(=O)N2CC(c3ccn4ncnc(Nc5ccc(Oc6ccn7ncnc7c6)c(C)c5)c34)C2)C1 (stereo not shown) [Example 41] ?
< 200 nM

Try this molecule too: C=C(F)C(=O)N1CC(n2cc(-c3ccn4ncnc(Nc5ccc(Oc6ccn7ncnc7c6)c(C)c5)c34)cn2)C1 [Example 19]
200 to 500 nM

Same lookup for Cc1cc(Nc2ncnn3ccc(C4CCN(C(=O)/C=C/CN5CC6COCC6C5)CC4)c23)ccc1Oc1ccn2ncnc2c1 (stereo not shown) [Example 119] , please.
< 200 nM

###

- assayed_system: BaF3_HER2YVMA cells (Homo sapiens, UniProt P04626, DUP772-775, cells depend on it)
- assay_procedure: Cell growth inhibition assay (CellTiterGlo), BaF3_HER2YVMA
- Assay type: cell-based
- assay_context: 3-day treatment, CellTiterGlo, read-out: Cell growth inhibition activity, HER2 - YVMA
quantity_name: GI50

Requested field: GI50. Item: C=CC(=O)N1CC=C(c2ccn3ncnc(Nc4ccc(Oc5ccn6ncnc6c5)c(C)c4)c23)C1 [Example 28, acetate]
500 to 1500 nM

Field entry: Cc1cc(Nc2ncnn3ccc(C4CN(C(=O)/C=C/CN(C)C)C4)c23)ccc1Oc1ccn2ncnc2c1 [Example 1]
< 200 nM

Try this molecule too: Cc1cc(Nc2ncnn3ccc(C4CCN(C(=O)/C=C/CN(C)C)CC4)c23)ccc1Oc1ccc2c(c1)ncn2C [Example 133]
< 200 nM

###

- assayed_system: BaF3_HER2YVMA cells (Homo sapiens, UniProt P04626, DUP772-775, cells depend on it)
- assay_procedure: Cell growth inhibition assay (CellTiterGlo), BaF3_HER2YVMA
- Assay type: cell-based
- assay_context: 3-day treatment, CellTiterGlo, read-out: Cell growth inhibition activity, HER2 - YVMA
quantity_name: GI50

Item under review: `C=CC(=O)NC1CN(c2ccn3ncnc(Nc4ccc(Oc5ccn6ncnc6c5)c(C)c4)c23)C1` . Reported GI50?
< 200 nM

Further, for `C=CC(=O)N1CC2CCC(C1)N2c1ccn2ncnc(Nc3ccc(Oc4ccn5ncnc5c4)c(C)c3)c12` ?
< 200 nM

Okay, and `CO[C@H]1CN(C/C=C/C(=O)N2CCC(c3ccn4ncnc(Nc5ccc(Oc6ccc7c(c6)ncn7C)c(C)c5)c34)CC2)C[C@H]1OC` ?
< 200 nM

And then `Cc1cc(Nc2ncnn3ccc(C4CN(C(=O)/C=C/CN(C)C)C4)c23)ccc1Oc1ccn2ccnc2c1` , what is it?
< 200 nM

One more molecule: `C=CC(=O)N1CCCN(c2ccn3ncnc(Nc4ccc(Oc5ccn6ncnc6c5)c(C)c4)c23)CC1`
< 200 nM

Another molecule to look at: Cc1cc(Nc2ncnn3ccc(C4CCCN(C(=O)/C=C/CN(C)C)C4)c23)ccc1Oc1ccn2ncnc2c1 (stereo not shown)
500 to 1500 nM

Another molecule: `Cc1cc(Nc2ncnn3ccc(C4=CCN(C(=O)/C=C/CN(C)C)CC4)c23)ccc1Oc1ccn2ncnc2c1`
< 200 nM

Next entry: `Cc1cc(Nc2ncnn3ccc(C4CN(C(=O)/C=C/CN5CCC(F)(F)CC5)C4)c23)ccc1Oc1ccn2ncnc2c1`
< 200 nM

Same for `C=CC(=O)N1CCC2(C1)CN(c1ccn3ncnc(Nc4ccc(Oc5ccn6ncnc6c5)c(C)c4)c13)C2`
200 to 500 nM

Note, next up: `C=C(F)C(=O)NC1CN(c2ccn3ncnc(Nc4ccc(Oc5ccn6ncnc6c5)c(C)c4)c23)C1`
500 to 1500 nM

Next: C=CC(=O)N(C)C1CCN(c2ccn3ncnc(Nc4ccc(Oc5ccn6ncnc6c5)c(C)c4)c23)C1 (stereo not shown)
< 200 nM

Next molecule: `C=CC(=O)N1CC2(C1)CN(c1ccn3ncnc(Nc4ccc(Oc5ccn6ncnc6c5)c(C)c4)c13)C2`
500 to 1500 nM

Repeat with `CNC/C=C/C(=O)N1CCC(c2ccn3ncnc(Nc4ccc(Oc5ccn6ncnc6c5)c(C)c4)c23)CC1`
< 200 nM

Now give it for Cc1cc(Nc2ncnn3ccc(C4CCN(C(=O)/C=C/CN5CCC(F)C5)CC4)c23)ccc1Oc1ccn2ncnc2c1 (stereo not shown) too.
< 200 nM

Moving on to the next molecule: `C=CC(=O)N1C2CCC1CN(c1ccn3ncnc(Nc4ccc(Oc5ccn6ncnc6c5)c(C)c4)c13)C2`
< 200 nM

And what about the molecule `C=C(F)C(=O)N1CC(n2cc(-c3ccn4ncnc(Nc5ccc(Oc6ccn7ncnc7c6)c(C)c5)c34)cn2)C1` ?
500 to 1500 nM

Likewise for `Cc1cc(Nc2ncnn3ccc(C4CN(C(=O)/C=C/CN5CCC(F)(F)C5)C4)c23)ccc1Oc1ccn2ncnc2c1` ?
200 to 500 nM

Repeat with Cc1cc(Nc2ncnn3ccc(N4CCC(N(C)C(=O)/C=C/CN(C)C)C4)c23)ccc1Oc1ccn2ncnc2c1 (stereo not shown)
< 200 nM

Now try `Cc1cc(Nc2ncnn3ccc(C4CN(C(=O)/C=C/CN5CC(F)C5)C4)c23)ccc1Oc1ccc2c(c1)ncn2C` .
< 200 nM

Okay, and `C=CC(=O)N1CCN(c2ccn3ncnc(Nc4ccc(Oc5ccn6ncnc6c5)c(C)c4)c23)CC1` ?
< 200 nM

Moving on to `C=CC(=O)NCCn1cc(-c2ccn3ncnc(Nc4ccc(Oc5ccn6ncnc6c5)c(C)c4)c23)cn1`
200 to 500 nM

# iterate: C=CC(=O)N1C[C@H]2C[C@@H]1C[C@H]2c1ccn2ncnc(Nc3ccc(Oc4ccn5ncnc5c4)c(C)c3)c12 (relative stereo)
1500 to 5000 nM
